Data provenance: PubChem BioAssay (NCI)

- Tested on: SNB-19 CNS
- Assay Procedure: NCI tumour cell line growth inhibition, 48 h
TGI values by entry
Recorded Metric: TGI

[[record]]
compound = "COc1ccc(Cn2cc3c(c2-c2ccccc2)CC(C)(C)c2cnoc2-3)cc1"
recorded_metric = "TGI"
recorded_value = "> 100 µM"

[[record]]
compound = "COc1cc2c3c(n(CCCNC(=O)OCC4c5ccccc5-c5ccccc54)c(=O)c2cc1OC)-c1cc2c(cc1/C3=C\\CCNC(=O)OCC1c3ccccc3-c3ccccc31)OCO2"
recorded_metric = "TGI"
recorded_value = "> 50 µM"

[[record]]
compound = "COc1ccc(C(=C(Cl)c2ccccc2)c2ccc(OC)cc2)cc1"
recorded_metric = "TGI"
recorded_value = "> 100 µM"

[[record]]
compound = "CCOc1ccccc1N=Nc1ccc2oc(=O)c(C(=O)Nc3cccc(C)c3)cc2c1"
recorded_metric = "TGI"
recorded_value = "99.4 µM"

[[record]]
compound = "CCOc1cn(C2CC(O)C(CO)O2)c(=O)[nH]c1=O (configuration not stated)"
recorded_metric = "TGI"
recorded_value = "> 100 µM"

[[record]]
compound = "NP(=O)(Oc1c2occc2cc2ccc(=O)oc12)N(CCCl)CCCl (configuration not stated)"
recorded_metric = "TGI"
recorded_value = "> 100 µM"

[[record]]
compound = "COc1ccc(C(=O)C(C(=O)CCC(=O)Nc2cccc(Cl)c2)c2ccc(OC)cc2)cc1 (configuration not stated)"
recorded_metric = "TGI"
recorded_value = "> 100 µM"

[[record]]
compound = "CN1C/C=C\\CCOc2cccc(c2)-c2ccnc(n2)Nc2cccc(c2)C1"
recorded_metric = "TGI"
recorded_value = "4.25 µM"

[[record]]
compound = "O=C1C2C3C=C4c5ccccc5N(c5ccccc5)C4(C2C(=O)N1Cc1ccccc1)C1C(=O)N(Cc2ccccc2)C(=O)C31 (configuration not stated)"
recorded_metric = "TGI"
recorded_value = "> 100 µM"

[[record]]
compound = "O=C1CCN2C(=O)CCN12"
recorded_metric = "TGI"
recorded_value = "> 100 µM"

[[record]]
compound = "NCC1Nc2ccccc2[C@@H](O)C1O (some centres not stated)"
recorded_metric = "TGI"
recorded_value = "> 100 µM"

[[record]]
compound = "CCC[CH2][Sn]1([CH2]CCC)[O]CC(CN2CCCC2)[O]1 (configuration not stated)"
recorded_metric = "TGI"
recorded_value = "44.3 µM"

[[record]]
compound = "Cc1c(S(=O)(=O)/N=C(\\NO)Nc2ccc(Cl)c(Cl)c2)sc2ccc(Cl)cc12"
recorded_metric = "TGI"
recorded_value = "45.1 µM"

[[record]]
compound = "Clc1nc(Cl)c(Cl)c(-c2ccccc2)n1"
recorded_metric = "TGI"
recorded_value = "33.3 µM"

[[record]]
compound = "Cc1cc(Cl)ccc1N=C1NC(=O)C(CC(=O)Nc2ccc([N+](=O)[O-])cc2[N+](=O)[O-])S1 (configuration not stated)"
recorded_metric = "TGI"
recorded_value = "73.2 µM"

[[record]]
compound = "c1cc(CNC23CC4CC(CC(C4)C2)C3)cc(C[N+](Cc2cccc(CNC34CC5CC(CC(C5)C3)C4)c2)(Cc2cccc(CNC34CC5CC(CC(C5)C3)C4)c2)Cc2cccc(CNC34CC5CC(CC(C5)C3)C4)c2)c1 (configuration not stated)"
recorded_metric = "TGI"
recorded_value = "30.4 µM"

[[record]]
compound = "Cc1cccc(NC(=O)/C(=N\\NC(C)(C)C)C2NC(=S)NC2=O)c1C (configuration not stated)"
recorded_metric = "TGI"
recorded_value = "> 100 µM"

[[record]]
compound = "C=CC(CCc1ccc(C(=O)OCC)cc1)c1c(N)nc(N)[nH]c1=O (configuration not stated)"
recorded_metric = "TGI"
recorded_value = "> 100 µM"

[[record]]
compound = "COc1cc(/C=C/c2cc(/C=C/c3ccc(O)c(OC)c3)n(C(=O)Nc3ccc(F)c(Cl)c3)n2)ccc1O"
recorded_metric = "TGI"
recorded_value = "2.1 µM"

[[record]]
compound = "COc1cc(C=C2C(=O)NC(=O)NC2=O)cc(OC)c1OC"
recorded_metric = "TGI"
recorded_value = "> 100 µM"

[[record]]
compound = "CN1CCN(CCCOc2ccc3nc(Nc4ccc(Cl)c(C(F)(F)F)c4)ccc3c2)CC1"
recorded_metric = "TGI"
recorded_value = "34.5 µM"

[[record]]
compound = "Cc1ccc2c(c1)C(C(=O)N[C@@H]1C(=O)N3[C@@H]1SC(C)(C)[C@@H]3C(=O)O)OCCC2 (some centres not stated)"
recorded_metric = "TGI"
recorded_value = "> 100 µM"

[[record]]
compound = "COC1(OC)C2(Cl)C(Cl)=C(Cl)C1(Cl)C1C=CC=CC12 (configuration not stated)"
recorded_metric = "TGI"
recorded_value = "> 100 µM"

[[record]]
compound = "Cc1ccc(C2=C(c3ccccc3)C(Br)(c3ccc(C)cc3)C(c3ccccc3)=C2c2ccc(C)cc2)cc1"
recorded_metric = "TGI"
recorded_value = "> 100 µM"

[[record]]
compound = "O=C(c1ccc(N=Cc2ccccc2O)cc1)c1ccc(N=Cc2ccccc2O)cc1"
recorded_metric = "TGI"
recorded_value = "> 100 µM"

[[record]]
compound = "Cc1cccc(N2CCN(C(=S)c3ccc4c(c3)OCO4)CC2)c1"
recorded_metric = "TGI"
recorded_value = "> 100 µM"

[[record]]
compound = "NS(=O)(=O)c1ccc(N=Nc2c(O)[nH]c3ccc(-c4cnco4)cc23)cc1"
recorded_metric = "TGI"
recorded_value = "> 25 µM"

[[record]]
compound = "COC1=C(C)C(=O)c2c(c(COC(N)=O)c3n2CC2C3N2C)C1=O (configuration not stated)"
recorded_metric = "TGI"
recorded_value = "0.256 µM"

[[record]]
compound = "COc1cc2c(cc1OC)C(CC(=O)NN=C(C)C)NCC2 (configuration not stated)"
recorded_metric = "TGI"
recorded_value = "> 100 µM"

[[record]]
compound = "Clc1ccc(C2=Nn3c(COc4ccccc4Cl)nnc3SC2)c(Cl)c1"
recorded_metric = "TGI"
recorded_value = "> 100 µM"

[[record]]
compound = "CSc1ncnc2c1ncn2C1CC(Oc2ccc(C)cc2)C(COc2ccc(C)cc2)O1 (configuration not stated)"
recorded_metric = "TGI"
recorded_value = "> 100 µM"

[[record]]
compound = "CC1NC(=O)CC(c2ccccc2)N(N=O)C1c1ccccc1 (configuration not stated)"
recorded_metric = "TGI"
recorded_value = "> 91.3 µM"

[[record]]
compound = "COc1ccccc1/C=C1\\SC(=S)N(/C=C2\\C(=O)Oc3ccccc3C2=O)C1=O"
recorded_metric = "TGI"
recorded_value = "> 100 µM"

[[record]]
compound = "CN1C(=O)c2cccc3cc([N+](=O)[O-])cc(c23)C1=O"
recorded_metric = "TGI"
recorded_value = "> 10 µM"

[[record]]
compound = "CCOC(=O)C(=Cc1[nH]c2ccccc2c1-c1c[nH]c2ccccc12)C(=O)OCC"
recorded_metric = "TGI"
recorded_value = "28.3 µM"

[[record]]
compound = "O=C1OC(C(O)CO)C(=O)C1=O (configuration not stated)"
recorded_metric = "TGI"
recorded_value = "> 10000 µM"

[[record]]
compound = "CC1CC[C@]2(C(=O)O)CCC3(C)C(=CC(=O)C4[C@@]5(C)CCC(=O)C(C)(C)C5CC[C@]43C)[C@@H]2[C@H]1C (some centres not stated)"
recorded_metric = "TGI"
recorded_value = "> 100 µM"

